Every entry's value here was drawn from patent US9051348B2.

- Procedure text: MTT cytotoxicity assay in CCD19Lu cells
- Type: cell-based, human
- Study conditions: human
Measured attribute: IC50 at 3 days

Molecule	Measured attribute	Recorded result
CC(C)(O)C1CC[C@](C)(C2CC[C@]3(C)C2[C@H](O)CC2[C@@]4(C)CC[C@H](O[C@@H]5OC(CO)[C@@H](O)C(O)C5O)C(C)(C)C4CC[C@]23C)O1 (stereo partly shown)	IC50 at 3 days	> 100 µM

###

- Tested on: human normal lung fibroblasts CCD19Lu
- Procedure text: MTT cytotoxicity assay in CCD19Lu cells
- Assay type: cell-based
Measured attribute: IC50 (µM)

Compound	Measured attribute	Recorded result
CC(C)=CCC[C@](C)(O)[C@H]1CC[C@]2(C)[C@@H]1[C@H](O)C[C@@H]1[C@@]3(C)CC[C@H](O[C@@H]4O[C@H](CO)[C@@H](O)[C@H](O)[C@H]4O)C(C)(C)[C@@H]3CC[C@]12C [20(S)-Rh2]	IC50	80.5

###

- Procedure text: Acute oral toxicity, OECD Test Guideline 423, 14-day
- Assay type: in vivo, C57BL/6J mice
- Study conditions: both sexes, C57BL/6J, mouse, in vivo, 2000 mg/kg; oral, mice, estimated per OECD Test Guideline 423 criteria
- Protocol: The acute oral toxicity of the novel compound was evaluated in line with the Organization for Economic Cooperation and Development (OECD) Guideline for Testing Chemicals—Acute Oral Toxicity—Acute Toxic Class Method (Test Guideline 423, Adopted on 17 Dec. 2001). Based on the result of Example 4, the Test Procedure with a Starting Dose of 2000 mg/kg (Annex 2d of OECD 423) was selected to evaluate the acute toxicity of the novel compound. […]

Compound	LD50 at 14 days
CC(C)(O)C1CC[C@](C)(C2CC[C@]3(C)C2[C@H](O)CC2[C@@]4(C)CC[C@H](O[C@@H]5OC(CO)[C@@H](O)C(O)C5O)C(C)(C)C4CC[C@]23C)O1 (stereo partly shown) [novel compound]	> 5000 mg/kg
